Tested on: HEK-293T
Test: Multiplex assay against HEK293T
Format: toxicity, cell-based
Settings: human, 48 h, 10 µM, compound concentration 10 uM, replicate 1
ATTRIBUTE MEASURED: Population Membrane Permeable-Phenotype (%)

MOLECULE	EXPERIMENTAL VALUE
Cc1ccc(/C(=C\CN2CCCC2)c2ccccn2)cc1 [TRIPROLIDINE]	0
COc1cc(C(=O)N(CCCc2ccccc2)Cc2ccc(CC(=O)O)cc2)cc(OC)c1C	1
Cc1nc2ccc(Oc3ccc(F)cc3)cc2c(=O)n1C[C@H]1CCCN(C(C)C)C1.Cl	2
O=C(NCCO)c1cccc(-c2cc(Nc3ccc(OC(F)(F)F)cc3)ncn2)c1	1
c1cc(OCCCN2CCCCC2)ccc1CN1CCCCC1 [JNJ-5207852]	1
N#Cc1c(N)nc(SCc2csc(-c3ccc(Cl)cc3)n2)c(C#N)c1-c1ccc(OCCO)cc1 [CAPADENOSON]	0
CNC[C@H](O)c1ccc(O)c(O)c1 [EPINEPHRINE]	0
CC[C@H]1OC(=O)[C@H](C)[C@@H](O[C@H]2C[C@@](C)(OC)[C@@H](O)[C@H](C)O2)[C@H](C)[C@@H](O[C@@H]2O[C@H](C)C[C@H](N(C)C)[C@H]2O)[C@@]2(C)CC(C)=C(O2)[C@H](C)[C@@H](O)[C@]1(C)O	1
O=S(=O)(c1ccccc1)c1cnc2c(N3CCNCC3)cccc2c1 [INTEPIRDINE]	0

----------
System: Fibroblast
Assay: Multiplex assay against human fibroblast
Type: toxicity, cell-based
Settings: 12 h, 1 µM, compound concentration 1 uM, replicate 2
Entries and their Total Cell Count

COMPOUND	Total Cell Count
CCCn1c(=O)c2[nH]c(C3CCCC3)nc2n(CCC)c1=O	156
CSc1ccccc1N1CCN(CCCCCC(=O)NC2CCCc3ccccc32)CC1.Cl (stereo not given)	135
Cc1ccc(/C(=C\CN2CCCC2)c2ccccn2)cc1 [TRIPROLIDINE]	127
COc1c(C)cc(NC(=O)c2nn(Cc3ccc(F)cc3)c3c2CN(C(=O)c2ccc[nH]2)C[C@]3(C)C(N)=O)cc1C	86
Cc1ccc(F)cc1C(=O)Nc1ccc(C(=O)N2Cc3cccn3Cc3ccccc32)c(Cl)c1 [LIXIVAPTAN]	117

----------
Catalogue of compounds with associated Population Apoptotic (%)
Tested on: Fibroblast
Assay: Multiplex assay against human fibroblast
Assay type: toxicity, cell-based
Settings: 24 h, 10 µM, compound concentration 10 uM, replicate 2

COMPOUND	MEASURED ON	Population Apoptotic (%)
Cl.Clc1ccc2nsnc2c1NC1=NCCN1 [TIZANIDINE HYDROCHLORIDE]	Fibroblast	47
N#Cc1c(N)nc(SCc2csc(-c3ccc(Cl)cc3)n2)c(C#N)c1-c1ccc(OCCO)cc1	Fibroblast	41
CN(C)c1ccnc2sc3c(=O)n(N4CCCCCC4)cnc3c12	Fibroblast	30
COc1cc(C(=O)N(CCCc2ccccc2)Cc2ccc(CC(=O)O)cc2)cc(OC)c1C	Fibroblast	40
O=C(NCC(=O)N1CC[C@H](N[C@H]2CC[C@@](O)(c3ccc(-c4ncccn4)cn3)CC2)C1)c1cccc(C(F)(F)F)c1	Fibroblast	30

----------
System: Fibroblast
Assay: Multiplex assay against human fibroblast
Assay type: toxicity, cell-based
Conditions: 24 h, 10 µM, compound concentration 10 uM, replicate 1
ATTRIBUTE MEASURED: Population Normal (%)

MOLECULE	MEASURED ON	ATTRIBUTE MEASURED	UOM	EXPERIMENTAL VALUE
Cc1ccc(C(C)(O)c2nc3ccccc3s2)c(C)c1 (centres undefined)	Fibroblast	Population Normal (%)	%	95
O=C(NCC(=O)N1CC[C@H](N[C@H]2CC[C@@](O)(c3ccc(-c4ncccn4)cn3)CC2)C1)c1cccc(C(F)(F)F)c1 [PF-4136309]	Fibroblast	Population Normal (%)	%	96
O=C(O)Cc1ccccc1Nc1c(Cl)cccc1Cl [DICLOFENAC]	Fibroblast	Population Normal (%)	%	94
CN1CCN2c3ncccc3Cc3ccccc3C2C1 (centres undefined) [MIRTAZAPINE]	Fibroblast	Population Normal (%)	%	95
O=S(=O)(c1ccccc1)c1cnc2c(N3CCNCC3)cccc2c1 [INTEPIRDINE]	Fibroblast	Population Normal (%)	%	98
N[C@@]1(C(=O)O)CO[C@H]2[C@H](C(=O)O)[C@H]21 [LY-379268]	Fibroblast	Population Normal (%)	%	94
CCCC(CCC)C(=O)O [VALPROIC ACID]	Fibroblast	Population Normal (%)	%	93
CCNC1(C(N)=O)CCN(c2ncnc3c2nc(-c2ccccc2Cl)n3-c2ccc(Cl)cc2)CC1 [OTENABANT]	Fibroblast	Population Normal (%)	%	97
C[C@H]1[C@H]2CC[C@H]3[C@@H]4CC=C5C[C@@H](N(C)C)CC[C@]5(C)[C@H]4CC[C@]23CN1C [CONESSINE]	Fibroblast	Population Normal (%)	%	96

----------
Test system: Fibroblast
Test: Multiplex assay against human fibroblast
Format: toxicity, cell-based
Conditions: 12 h, 10 µM, compound concentration 10 uM, replicate 1
Each entry below carries its reported Population Healthy Nuclei (%).
ATTRIBUTE MEASURED: Population Healthy Nuclei (%)

COMPOUND	EXPERIMENTAL VALUE
N[C@@]1(C(=O)O)CO[C@H]2[C@H](C(=O)O)[C@H]21 [LY-379268]	69
COc1cc(NC(=O)CCN2CCC(OC(=O)Nc3ccccc3-c3ccccc3)CC2)c(Cl)cc1CNC[C@H](O)c1ccc(O)c2[nH]c(=O)ccc12 [BATEFENTEROL]	59
CNC[C@H](O)c1ccc(O)c(O)c1 [EPINEPHRINE]	61
Cl.Clc1ccc2nsnc2c1NC1=NCCN1 [TIZANIDINE HYDROCHLORIDE]	60

----------
System: U2OS
Test: Multiplex assay against U2OS
Format: toxicity, cell-based
Settings: human, 24 h, 10 µM, compound concentration 10 uM, replicate 2
Population Hoechst High Intensity Objects (%) reference
ATTRIBUTE MEASURED: Population Hoechst High Intensity Objects (%)

COMPOUND	EXPERIMENTAL VALUE
CN(C)CCCc1cc(C(=O)Nc2ccc(-c3ccncc3)cc2)ccc1O.Cl.Cl	0
CSc1ccccc1N1CCN(CCCCCC(=O)NC2CCCc3ccccc32)CC1.Cl (configuration not stated)	10
CCCn1c(=O)c2[nH]c(C3CCCC3)nc2n(CCC)c1=O	4
Cc1ccccc1C(=O)Nc1ccc(C(=O)N2CCCC(N(C)C)c3ccccc32)cc1.Cl (configuration not stated)	5
O=C(NCC(=O)N1CC[C@H](N[C@H]2CC[C@@](O)(c3ccc(-c4ncccn4)cn3)CC2)C1)c1cccc(C(F)(F)F)c1	0
O=S(=O)(c1ccccc1)c1cnc2c(N3CCNCC3)cccc2c1 [INTEPIRDINE]	0
COc1c(C)cc(NC(=O)c2nn(Cc3ccc(F)cc3)c3c2CN(C(=O)c2ccc[nH]2)C[C@]3(C)C(N)=O)cc1C	7
CCOc1c2c(c(OCC)c3ncccc13)CN(c1ccc(CS(=O)(=O)NC(=O)Cc3ccccc3OC)cc1C)C2=O	0
COc1cc(C(=O)N(CCCc2ccccc2)Cc2ccc(CC(=O)O)cc2)cc(OC)c1C	2
O=C(O)Cc1ccccc1Nc1c(Cl)cccc1Cl	1
CC[C@H]1OC(=O)[C@H](C)[C@@H](O[C@H]2C[C@@](C)(OC)[C@@H](O)[C@H](C)O2)[C@H](C)[C@@H](O[C@@H]2O[C@H](C)C[C@H](N(C)C)[C@H]2O)[C@@]2(C)CC(C)=C(O2)[C@H](C)[C@@H](O)[C@]1(C)O	4
N#Cc1c(N)nc(SCc2csc(-c3ccc(Cl)cc3)n2)c(C#N)c1-c1ccc(OCCO)cc1	2
CN(C)c1ccnc2sc3c(=O)n(N4CCCCCC4)cnc3c12	3
COc1cc(NC(=O)CCN2CCC(OC(=O)Nc3ccccc3-c3ccccc3)CC2)c(Cl)cc1CNC[C@H](O)c1ccc(O)c2[nH]c(=O)ccc12	9
CCCN1CCC[C@@H]2Cc3n[nH]cc3C[C@H]21.Cl [QUINPIROLE HYDROCHLORIDE]	0
CN1CCN2c3ncccc3Cc3ccccc3C2C1 (configuration not stated)	0
COc1ccc2c(c1)C(C(=O)N(Cc1ccc(N(C)C)cc1)c1ccc(C(C)C)cc1)CCC2.Cl (configuration not stated)	9

----------
Tested on: U2OS
Experiment: Multiplex assay against U2OS
Format: toxicity, cell-based
Settings: human, 48 h, 10 µM, compound concentration 10 uM, replicate 2
Population Fragmented Nuclei (%) under 20% gets Met, anything at or over 20% gets Not met.

MOLECULE	ASSIGNED LABEL
CSc1ccccc1N1CCN(CCCCCC(=O)NC2CCCc3ccccc32)CC1.Cl (configuration not stated)	Not met
CN(C)c1ccnc2sc3c(=O)n(N4CCCCCC4)cnc3c12	Met
CN1CCN(c2nc3cc(C(F)(F)F)ccc3n3cccc23)CC1.O=C(O)/C=C\C(=O)O.O=C(O)/C=C\C(=O)O	Not met
N#Cc1c(N)nc(SCc2csc(-c3ccc(Cl)cc3)n2)c(C#N)c1-c1ccc(OCCO)cc1	Not met
CCNC1(C(N)=O)CCN(c2ncnc3c2nc(-c2ccccc2Cl)n3-c2ccc(Cl)cc2)CC1	Not met
CNC[C@H](O)c1ccc(O)c(O)c1 [EPINEPHRINE]	Not met
Oc1c(CN2CCN(c3ccccn3)CC2)cc(Cl)c2cccnc12	Not met
O=C(NCCO)c1cccc(-c2cc(Nc3ccc(OC(F)(F)F)cc3)ncn2)c1	Not met
CSCC[C@H](NC=O)C(=O)N[C@@H](CC(C)C)C(=O)N[C@@H](Cc1ccccc1)C(=O)O	Not met
O=C1COc2nccc(-c3ccccc3F)c2CN1Cc1cc(C(F)(F)F)cc(C(F)(F)F)c1	Not met
Cc1ccc(/C(=C\CN2CCCC2)c2ccccn2)cc1	Met
Cl.Clc1ccc2nsnc2c1NC1=NCCN1 [TIZANIDINE HYDROCHLORIDE]	Not met
COc1c(C)cc(NC(=O)c2nn(Cc3ccc(F)cc3)c3c2CN(C(=O)c2ccc[nH]2)C[C@]3(C)C(N)=O)cc1C	Not met
C[C@H]1[C@H]2CC[C@H]3[C@@H]4CC=C5C[C@@H](N(C)C)CC[C@]5(C)[C@H]4CC[C@]23CN1C	Met
CCCn1c(=O)c2[nH]c(C3CCCC3)nc2n(CCC)c1=O	Met
